Recorded values, source ChEMBL document CHEMBL4251608.

System: HeLa
Assay: Cytotoxicity against human HeLa cells at 100 uM
Assay type: cell-based

>  <mol smiles>
O=c1c[n+]([O-])ccn1[C@H]1O[C@H](CO)[C@@H](O)[C@H]1O

>  <system name>
HeLa

>  <Activity>
Non-Toxic

$$$$
>  <mol smiles>
Cc1cn([C@H]2O[C@H](CO)[C@@H](O)[C@H]2O)c(=O)c[n+]1[O-]

>  <system name>
HeLa

>  <Activity>
Non-Toxic

$$$$
>  <mol smiles>
CCc1c[nH]c(=O)c[n+]1[O-]

>  <system name>
HeLa

>  <Activity>
Non-Toxic

$$$$

* * *

Experiment: Selectivity index, ratio of CC50 for HEL cells to EC50 for HSV1 KOS infected in HEL cells
Assay type: toxicity, cell-based
Conditions: human, read-out: Ratio CC50/EC50
experimental readout: selectivity ratio
One number for each entry.

Problem: Can you look up the measured selectivity ratio of "Cc1cn([C@H]2C[C@H](O)[C@@H](CO)O2)c(=O)c[n+]1[O-]" for me?
Solution: 230
